Every entry's value here was drawn from patent US20020028938A1.

Molecular target: recombinant human Cox-2 (r-hu Cox-2) (Homo sapiens, UniProt P35354)
Construct: made in house; host or cells: baculovirus/Sf9 insect cells (microsomes)
Experiment: Recombinant human PGHS-2 enzyme assay (RHUCX2)
Assay type: biochemical
Conditions: 0.1 μM; read-out: RHUCX2 % Inh. at Dose
measure: inhibition at 0.1 µM (%)

• CS(=O)(=O)c1ccc(-c2cnn(-c3cccc(Cl)c3)c(=O)c2C2CCCCC2)cc1 = 65
• CC(C)CCOc1c(-c2ccc(S(C)(=O)=O)cc2)cnn(CC(F)(F)F)c1=O = 57
• COC(Cn1ncc(-c2ccc(S(C)(=O)=O)cc2)c(-c2ccc(F)cc2)c1=O)c1ccccc1 (stereo not drawn) = 90

---

Target: recombinant human Cox-1 (r-hu Cox1) (Homo sapiens, UniProt P23219)
Construct: made in house; host or cells: baculovirus/Sf9 insect cells (microsomes)
Sequence (P23219 24-599): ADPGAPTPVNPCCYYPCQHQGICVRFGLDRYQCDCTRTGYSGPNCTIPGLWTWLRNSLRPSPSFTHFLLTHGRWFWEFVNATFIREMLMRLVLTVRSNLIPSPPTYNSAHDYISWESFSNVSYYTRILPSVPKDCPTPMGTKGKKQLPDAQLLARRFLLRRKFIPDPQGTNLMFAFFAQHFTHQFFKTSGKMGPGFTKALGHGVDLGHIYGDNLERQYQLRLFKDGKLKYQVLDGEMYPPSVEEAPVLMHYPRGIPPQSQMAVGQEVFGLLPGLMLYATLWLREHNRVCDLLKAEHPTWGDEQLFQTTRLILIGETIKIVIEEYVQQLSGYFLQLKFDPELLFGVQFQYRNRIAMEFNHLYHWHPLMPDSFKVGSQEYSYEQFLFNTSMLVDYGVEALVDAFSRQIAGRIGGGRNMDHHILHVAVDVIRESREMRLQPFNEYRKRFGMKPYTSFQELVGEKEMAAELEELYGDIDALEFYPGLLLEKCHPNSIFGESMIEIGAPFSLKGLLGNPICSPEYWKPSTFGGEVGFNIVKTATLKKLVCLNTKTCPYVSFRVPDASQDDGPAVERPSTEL
Assay: Recombinant human PGHS-1 enzyme assay (RHUCX1)
Type: biochemical
Conditions: 100 μM; read-out: RHUCX1 % Inh. at Dose
Protocol: To compare the mean responses of the treatment groups, analysis of variance was applied. Percent inhibition values were determined by comparing the individual treatment mean values to the mean of the control group. […] EIA reagents for prostaglandin determination were purchased from Perseptive Diagnostics, (Cambridge, Mass.). Prostaglandin E2 (PGE2) levels in lavage fluids were determined after the samples were dried under nitrogen and reconstituted with assay buffer. […]
Each entry below carries its reported inhibition at 100 µM.
measure: inhibition at 100 µM (%)

• CS(=O)(=O)c1ccc(-c2cnn(-c3ccc(F)c(F)c3)c(=O)c2Oc2ccc(Cl)cc2)cc1 [Example 281] = 7
• CS(=O)(=O)c1ccc(-c2cnn(C3Cc4ccccc4C3)c(=O)c2-c2ccc(F)cc2)cc1 [Example 128] = 14
• CC(c1ccc(F)cc1)n1ncc(-c2ccc(S(C)(=O)=O)cc2)c(-c2ccc(F)cc2)c1=O (stereo not drawn) [Example 50] = 23
• CC(C)=CCCOc1c(-c2ccc(S(C)(=O)=O)cc2)cnn(-c2cccc(Cl)c2)c1=O [Example 426] = 1
• NS(=O)(=O)c1ccc(-c2cnn(-c3ccc(F)cc3)c(=O)c2Cc2cccc(F)c2)cc1 [Example 253] = 77
• CS(=O)(=O)c1ccc(-c2cnn(-c3cccc(Cl)c3)c(=O)c2OCC2CC2)cc1 [Example 418] = 33
• CC(C)CCc1c(-c2ccc(S(C)(=O)=O)c(F)c2)cnn(-c2ccc(F)c(Cl)c2)c1=O [Example 252] = 0
• CC(C)(O)CCOc1c(-c2ccc(S(C)(=O)=O)cc2)cnn(-c2cccc(Cl)c2)c1=O [Example 475] = 0
• CC(C)CC(C)Oc1c(-c2ccc(S(C)(=O)=O)cc2)cnn(-c2ccc(F)c(F)c2)c1=O (stereo not drawn) [Example 438] = 0
• CS(=O)(=O)c1ccc(-c2cnn(Cc3ccccc3)c(=O)c2-c2cccc([N+](=O)[O-])c2)cc1 [Example 321] = 4
• CS(=O)(=O)c1ccc(-c2cnn(-c3cccc(Br)c3)c(=O)c2-c2ccc(F)cc2)cc1 [Example 166] = 3
• CS(=O)(=O)c1ccc(-c2cnn(-c3cccc(Cl)c3)c(=O)c2Cc2ccc(F)cc2)cc1 [Example 369] = 0

---

Biological target: recombinant human Cox-1 (r-hu Cox1) (Homo sapiens, UniProt P23219)
Construct: made in house; host or cells: baculovirus/Sf9 insect cells (microsomes)
Assay: Recombinant human PGHS-1 enzyme assay (RHUCX1)
Type: biochemical
Conditions: 10 μM; read-out: RHUCX1 % Inh. at Dose
measure: inhibition at 10 µM (%)

• NS(=O)(=O)c1ccc(-c2cnn(Cc3ccc(F)c(F)c3)c(=O)c2-c2ccc(F)cc2)cc1 = 50
• C=C(F)C(F)(F)n1ncc(-c2ccc(S(N)(=O)=O)cc2)c(-c2ccc(F)cc2)c1=O = 80
• CS(=O)(=O)c1ccc(-c2cnn(CC=C(Cl)Cl)c(=O)c2-c2ccc(F)cc2)cc1 = 34
• NS(=O)(=O)c1ccc(-c2cnn(Cc3ccc(F)c(F)c3F)c(=O)c2-c2ccc(F)cc2)cc1 = 35
• CC(C)CCOc1c(-c2ccc(S(N)(=O)=O)cc2)cnn(-c2cccc(Cl)c2)c1=O = 38
• CS(=O)(=O)c1ccc(-c2cnn(-c3cccc(Cl)c3)c(=O)c2Oc2cccc(F)c2)cc1 = 96
• Cc1cc(-c2c(-c3ccc(S(C)(=O)=O)cc3)cnn(-c3ccc(F)c(Cl)c3)c2=O)ccc1F = 72
• NS(=O)(=O)c1ccc(-c2cnn(Cc3ccc(F)cc3)c(=O)c2-c2ccc(F)cc2)cc1 = 39

---

Biological target: recombinant human Cox-2 (r-hu Cox-2) (Homo sapiens, UniProt P35354)
Construct: made in house; host or cells: baculovirus/Sf9 insect cells (microsomes)
Test: Recombinant human PGHS-2 enzyme assay (RHUCX2)
Type: biochemical
Settings: 1 μM; read-out: RHUCX2 % Inh. at Dose
Measured inhibition at 1 µM values are reported for all entries that follow.
measure: inhibition at 1 µM

* CS(=O)(=O)c1ccc(-c2cnn(Cc3ccccc3)c(=O)c2-c2ccc(Cl)c(Cl)c2)cc1 | 98%
* CC(C)CCCc1c(-c2ccc(S(C)(=O)=O)cc2)cnn(-c2cccc(Cl)c2)c1=O | 92%
* CC(C)CCCOc1c(-c2ccc(S(C)(=O)=O)cc2)cnn(-c2ccc(F)cc2)c1=O | 87%
* CC(C)COc1c(-c2ccc(S(N)(=O)=O)cc2)cnn(-c2ccc(F)c(F)c2)c1=O | 92%
* CS(=O)(=O)c1ccc(-c2cnn(C3CCCCC3)c(=O)c2-c2ccc(F)cc2)cc1 | 97%
* CC(C)CCCc1c(-c2ccc(S(C)(=O)=O)cc2)cnn(-c2ccc(F)c(F)c2)c1=O | 83%

---

Target: Human Whole Platelet Cyclooxygenase-1 (Homo sapiens, UniProt P23219)
Sequence (P23219 24-599): as above
Test: Human Whole Platelet Cyclooxygenase-1 assay (HWPX)
Details: read-out: HWPX IC50 (parenthetical value)
Description: Blood from normal healthy volunteers is collected into tubes containing ACD (acid citrate dextrose) as the anticoagulant. This blood is centrifuged at 175×g to prepare platelet rich plasma. […] The reaction is stopped by adding cold 6 mM EDTA, the incubation mixture is centrifuged at 220×g, and the supernatants are then analyzed for thromboxane using a commercial kit from Cayman Chemical (Ann Arbor, Mich.
pIC50: −log10 of the molar value.
measure: pIC50

- NS(=O)(=O)c1ccc(-c2cnn(-c3ccc(F)cc3)c(=O)c2-c2ccc(F)cc2)cc1F: 4.60
- CS(=O)(=O)c1ccc(-c2cnn(-c3cccc(Cl)c3)c(=O)c2C2CCCCC2)cc1: 4.86
- CC(C)(C)COc1c(-c2ccc(S(N)(=O)=O)cc2)cnn(-c2ccc(F)c(F)c2)c1=O: 5.79
- CS(=O)(=O)c1ccc(-c2cnn(-c3ccc(Cl)c(F)c3)c(=O)c2-c2ccc(F)cc2)cc1: 5.00
- CC(C)(O)COc1c(-c2ccc(S(N)(=O)=O)cc2)cnn(-c2ccc(F)cc2)c1=O: 6.30
- CC(C)CCOc1c(-c2ccc(S(C)(=O)=O)cc2)cnn(C(C)(C)C)c1=O: 4.78
- CC(/C=C/Cl)n1ncc(-c2ccc(S(N)(=O)=O)cc2)c(-c2ccc(F)cc2)c1=O (centres unmarked): 6.11
- Cc1ccc(-c2c(-c3ccc(S(C)(=O)=O)cc3)cnn(Cc3ccccc3)c2=O)cc1C: 5.64

---

Biological target: recombinant human Cox-2 (r-hu Cox-2) (Homo sapiens, UniProt P35354)
Experiment: Recombinant human PGHS-2 enzyme assay (RHUCX2)
Conditions: read-out: RHUCX2 IC50 (parenthetical value)
Method: To compare the mean responses of the treatment groups, analysis of variance was applied. Percent inhibition values were determined by comparing the individual treatment mean values to the mean of the control group. […] EIA reagents for prostaglandin determination were purchased from Perseptive Diagnostics, (Cambridge, Mass.). Prostaglandin E2 (PGE2) levels in lavage fluids were determined after the samples were dried under nitrogen and reconstituted with assay buffer. […]
Could you please mark t for values of IC50 below 90 nM and f for values at or above it?

• CS(=O)(=O)c1ccc(-c2cnn(-c3ccc(F)c(Cl)c3)c(=O)c2-c2ccc(F)cc2)cc1 = f
• CS(=O)(=O)c1ccc(-c2cnn(-c3cccc(Cl)c3)c(=O)c2Oc2ccc(F)cc2)cc1 = f
• CS(=O)(=O)c1ccc(-c2cnn(-c3cccc(Cl)c3)c(=O)c2Cc2ccccc2)cc1 = t
• CC(C)(C)COc1c(-c2ccc(S(C)(=O)=O)cc2)cnn(-c2ccc(F)c(F)c2)c1=O = t
• CC(C)=CCCOc1c(-c2ccc(S(C)(=O)=O)cc2)cnn(-c2ccc(F)c(F)c2)c1=O = f
• CS(=O)(=O)c1ccc(-c2cnn(-c3ccc(F)c(F)c3)c(=O)c2Oc2ccc(F)cc2)cc1 = f

---

Molecular target: recombinant human Cox-1 (r-hu Cox1) (Homo sapiens, UniProt P23219)
Construct: made in house; host or cells: baculovirus/Sf9 insect cells (microsomes)
Assay: Recombinant human PGHS-1 enzyme assay (RHUCX1)
Format: biochemical
Conditions: 100 μM; read-out: RHUCX1 % Inh. at Dose
Procedure: To compare the mean responses of the treatment groups, analysis of variance was applied. Percent inhibition values were determined by comparing the individual treatment mean values to the mean of the control group. […] EIA reagents for prostaglandin determination were purchased from Perseptive Diagnostics, (Cambridge, Mass.). Prostaglandin E2 (PGE2) levels in lavage fluids were determined after the samples were dried under nitrogen and reconstituted with assay buffer. […]
Classification field: enter Met for inhibition at 100 µM values not below 20%, Not met for values below it.

- CS(=O)(=O)c1ccc(-c2cnn(-c3cccc(Cl)c3)c(=O)c2CCc2ccccc2)cc1: Not met
- CS(=O)(=O)c1ccc(-c2cnn(-c3ccc(F)c(F)c3)c(=O)c2Cc2ccc(F)cc2)cc1: Not met
- CN(C)c1cccc(Oc2c(-c3ccc(S(C)(=O)=O)cc3)cnn(-c3cccc(Cl)c3)c2=O)c1: Not met
- CC(C)CCCOc1c(-c2ccc(S(C)(=O)=O)cc2)cnn(-c2ccc(F)c(F)c2)c1=O: Not met
- CS(=O)(=O)c1ccc(-c2cnn(-c3ccc(F)c(F)c3)c(=O)c2C#Cc2ccccc2)cc1: Not met
- CS(=O)(=O)c1ccc(-c2cnn(CC(F)(F)F)c(=O)c2Oc2cccnc2)cc1: Not met
- CC(C)(C)COc1c(-c2ccc(S(N)(=O)=O)c(F)c2)cnn(CC(F)(F)F)c1=O: Not met
- CC(C)CSCc1c(-c2ccc(S(C)(=O)=O)cc2)cnn(-c2ccc(F)cc2)c1=O: Not met
- NS(=O)(=O)c1ccc(-c2cnn(CC(F)=C(F)F)c(=O)c2-c2ccc(F)cc2)cc1: Met
- Cc1ccc(-c2c(-c3ccc(S(C)(=O)=O)cc3)cnn(-c3ccc(F)c(F)c3)c2=O)cc1: Not met
- CS(=O)(=O)c1ccc(-c2cnn(-c3cccc(Cl)c3)c(=O)c2-c2ccc(F)cc2)cc1: Not met
- NS(=O)(=O)c1ccc(-c2cnn(CC(F)(F)F)c(=O)c2-c2ccc(F)cc2)cc1: Met
- NS(=O)(=O)c1ccc(-c2cnn(Cc3ccc(F)c(F)c3F)c(=O)c2-c2ccc(F)cc2)cc1: Met
- COc1ccc(Oc2c(-c3ccc(S(C)(=O)=O)cc3)cnn(-c3cccc(Cl)c3)c2=O)cc1: Not met
- CC(C)(C)COc1c(-c2ccc(S(C)(=O)=O)cc2)cnn(-c2cccc(Cl)c2)c1=O: Not met
- CC(C)COc1c(-c2ccc(S(N)(=O)=O)c(F)c2)cnn(-c2cccc(Cl)c2)c1=O: Met
- CC(C)COc1c(-c2ccc(S(N)(=O)=O)cc2)cnn(-c2cccc(Cl)c2)c1=O: Met
- CS(=O)(=O)c1ccc(-c2cnn(Cc3c(F)c(F)c(F)c(F)c3F)c(=O)c2-c2ccc(F)cc2)cc1: Not met
- C=Cc1ccc(-c2c(-c3ccc(S(C)(=O)=O)cc3)cnn(Cc3ccccc3)c2=O)cc1: Met
- CC(C)CCc1c(-c2ccc(S(N)(=O)=O)cc2)cnn(-c2ccc(F)c(Cl)c2)c1=O: Met
- CCC(C)CCOc1c(-c2ccc(S(C)(=O)=O)cc2)cnn(-c2ccc(F)c(F)c2)c1=O (centres unmarked): Not met
- CC(C)COc1c(-c2ccc(S(N)(=O)=O)cc2)cnn(-c2ccc(F)cc2)c1=O: Met
- NS(=O)(=O)c1ccc(-c2cnn(Cc3ccccc3)c(=O)c2-c2ccc(F)cc2)cc1: Met
